Target: hAC8 (Homo sapiens)
Construct: expressed in transfected cells
Sequence (P40145 whole entry): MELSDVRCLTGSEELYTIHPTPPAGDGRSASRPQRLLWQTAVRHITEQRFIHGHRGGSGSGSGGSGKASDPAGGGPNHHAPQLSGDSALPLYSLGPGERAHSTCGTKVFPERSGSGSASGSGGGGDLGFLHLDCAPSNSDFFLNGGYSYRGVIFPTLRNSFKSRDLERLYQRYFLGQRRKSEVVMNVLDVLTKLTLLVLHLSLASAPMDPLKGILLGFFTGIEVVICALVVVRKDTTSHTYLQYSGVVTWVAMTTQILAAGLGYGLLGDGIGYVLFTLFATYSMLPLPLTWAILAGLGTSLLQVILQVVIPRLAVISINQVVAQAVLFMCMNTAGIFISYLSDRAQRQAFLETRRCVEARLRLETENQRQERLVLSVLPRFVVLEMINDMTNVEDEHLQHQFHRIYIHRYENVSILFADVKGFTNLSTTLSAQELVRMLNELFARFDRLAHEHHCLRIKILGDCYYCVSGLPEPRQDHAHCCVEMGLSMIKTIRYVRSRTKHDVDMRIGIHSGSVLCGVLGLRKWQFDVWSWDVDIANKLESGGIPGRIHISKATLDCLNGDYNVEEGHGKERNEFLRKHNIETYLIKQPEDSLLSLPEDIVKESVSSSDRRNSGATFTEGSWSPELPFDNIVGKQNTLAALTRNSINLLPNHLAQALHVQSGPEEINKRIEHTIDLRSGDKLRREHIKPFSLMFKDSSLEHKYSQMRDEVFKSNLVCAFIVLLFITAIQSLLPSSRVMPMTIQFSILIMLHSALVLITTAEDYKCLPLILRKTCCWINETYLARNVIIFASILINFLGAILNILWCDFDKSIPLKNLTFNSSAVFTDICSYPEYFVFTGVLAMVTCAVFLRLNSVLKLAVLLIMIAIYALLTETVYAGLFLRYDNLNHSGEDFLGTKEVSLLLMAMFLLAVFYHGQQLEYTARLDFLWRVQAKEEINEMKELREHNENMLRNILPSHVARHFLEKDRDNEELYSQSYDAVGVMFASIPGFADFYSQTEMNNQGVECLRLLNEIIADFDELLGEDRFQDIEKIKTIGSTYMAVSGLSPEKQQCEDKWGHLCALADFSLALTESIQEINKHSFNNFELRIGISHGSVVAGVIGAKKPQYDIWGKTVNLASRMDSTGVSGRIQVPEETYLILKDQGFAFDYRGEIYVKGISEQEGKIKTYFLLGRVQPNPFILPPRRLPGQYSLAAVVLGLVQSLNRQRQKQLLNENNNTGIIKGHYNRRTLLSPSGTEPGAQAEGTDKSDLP
Assay: Cyclic AMP accumulation (HTRF) in HEK cells stably expressing AC8, stimulated with A23187
Assay type: cell-based
Settings: Table 1; stable HEK cells, A23187-stimulated cAMP; n ≥ 3; read-out: hAC8 IC50
Method: Fresh powders of several robust inhibitors (>90% inhibition) were evaluated in multiple confirmation assays assessing the dose response relationship for inhibiting AC1 and AC8 activity. […] The primary technology we employed to measure cAMP accumulation was a homogenous time-resolved fluorescence (HTRF) assay, the same technology utilized in the primary screen. […] Cyclic AMP accumulation was measured as previously described (Brust, et al., J. Pharmacol. Exp. Ther. 352, 480-493(2015)). […]
Reported IC50 by item:
The answer is to be given in µM; state only the numeric part.

Solved cases (2 shown):
O=C(Nc1nnc(-c2ccc3c(c2)CCCC3)o1)c1ccccc1 [Compound F0608-0538] | 21
CC1CC(C)CN(S(=O)(=O)c2ccc(C(=O)Nc3nnc(-c4cccs4)o3)cc2)C1 (stereo not drawn) [Compound F0559-0346] | 17

stdin: Query IC50 on hAC8 (Homo sapiens) for O=C(Nc1nnc(-c2ccc3c(c2)OCCO3)o1)c1ccc(Br)cc1 [Compound F0608-0011]
stdout: 18

###

Reported hAC5 % Inhib by item:
biological target: hAC5 (Homo sapiens); construct: expressed in transfected cells; assay: Cyclic AMP accumulation in stable HEK-AC5 cells, stimulated with 300 nM forskolin; format: cell-based; details: Table 1, at 30 μM, negative = potentiated, n = 2
Sequence (O95622 whole entry): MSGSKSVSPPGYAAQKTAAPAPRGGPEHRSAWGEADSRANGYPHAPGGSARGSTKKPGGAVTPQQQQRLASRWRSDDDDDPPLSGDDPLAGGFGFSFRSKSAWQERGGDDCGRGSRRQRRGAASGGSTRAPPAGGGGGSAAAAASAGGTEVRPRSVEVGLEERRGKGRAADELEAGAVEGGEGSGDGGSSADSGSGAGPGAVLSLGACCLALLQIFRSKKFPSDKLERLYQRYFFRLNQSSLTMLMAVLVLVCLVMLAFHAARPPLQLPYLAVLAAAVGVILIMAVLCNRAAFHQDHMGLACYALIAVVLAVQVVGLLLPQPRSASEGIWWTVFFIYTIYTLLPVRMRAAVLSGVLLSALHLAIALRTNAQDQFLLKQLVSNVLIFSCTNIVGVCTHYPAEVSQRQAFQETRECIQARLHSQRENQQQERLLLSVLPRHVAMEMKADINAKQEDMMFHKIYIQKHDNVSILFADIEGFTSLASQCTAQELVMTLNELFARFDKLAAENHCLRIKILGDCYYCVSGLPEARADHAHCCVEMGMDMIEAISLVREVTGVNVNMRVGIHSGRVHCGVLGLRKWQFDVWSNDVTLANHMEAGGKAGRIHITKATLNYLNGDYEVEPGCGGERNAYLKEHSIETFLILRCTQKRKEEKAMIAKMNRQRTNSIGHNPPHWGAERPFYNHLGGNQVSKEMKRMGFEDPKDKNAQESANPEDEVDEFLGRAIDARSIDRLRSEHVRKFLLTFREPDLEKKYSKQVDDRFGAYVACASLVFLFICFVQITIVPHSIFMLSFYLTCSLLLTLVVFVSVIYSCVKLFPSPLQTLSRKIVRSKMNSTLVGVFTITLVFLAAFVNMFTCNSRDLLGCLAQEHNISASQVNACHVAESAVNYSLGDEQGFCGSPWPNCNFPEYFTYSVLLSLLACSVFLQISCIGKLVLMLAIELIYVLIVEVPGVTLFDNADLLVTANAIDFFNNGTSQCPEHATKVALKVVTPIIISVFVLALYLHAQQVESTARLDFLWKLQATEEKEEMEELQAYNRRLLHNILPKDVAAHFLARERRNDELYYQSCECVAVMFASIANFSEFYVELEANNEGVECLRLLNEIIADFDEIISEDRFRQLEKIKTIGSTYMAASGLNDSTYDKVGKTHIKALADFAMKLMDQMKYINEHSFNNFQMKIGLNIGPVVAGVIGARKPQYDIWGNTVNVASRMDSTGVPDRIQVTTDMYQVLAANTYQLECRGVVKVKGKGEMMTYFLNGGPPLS
The answer is to be given in %; state only the numeric part.

Solved cases (4 shown):
CCc1cc(=O)[nH]c(-n2nc(C)cc2NC(=O)c2ccccc2F)n1 | 9
CSc1ccccc1C(=O)Nc1cc(C)nn1-c1nc2c(c(=O)[nH]1)CCC2 | −21
CCc1c(C)nc(-n2nc(C)cc2NC(=O)c2ccco2)[nH]c1=O | 13
CSc1cccc(C(=O)Nc2nnc(C3CCCCC3)o2)c1 | −28

stdin: // hAC5 % Inhib lookup, key: O=C(Nc1nnc(-c2ccc3c(c2)OCCO3)o1)c1ccc(Br)cc1
stdout: −10

stdin: // hAC5 % Inhib lookup, key: O=C(Nc1nnc(-c2ccc3c(c2)CCCC3)o1)c1ccccc1
stdout: −34

stdin: // hAC5 % Inhib lookup, key: CC1CC(C)CN(S(=O)(=O)c2ccc(C(=O)Nc3nnc(-c4cccs4)o3)cc2)C1 (stereo not shown)
stdout: 4

###

molecular target: hAC8 (Homo sapiens); construct: expressed in transfected cells; assay: Cyclic AMP accumulation (HTRF) in HEK cells stably expressing AC8, stimulated with A23187; format: cell-based; conditions: Table 2; read-out: HEK-AC8 IC50
readoutType: IC50 (µM)
The answer is to be given in µM; state only the numeric part.

stdin: // IC50 lookup, key: CCc1cc(=O)nc(-n2nc(C)cc2NC(=O)c2cccc(F)c2)[nH]1 [AC10049]
stdout: 68

###

Reported hAC2 % Inhib by item:
biological target: hAC2 (Homo sapiens); construct: expressed in transfected cells; assay: Cyclic AMP accumulation in stable HEK-AC2 cells, stimulated with 100 nM PMA; type: cell-based; conditions: Table 1, at 30 μM, negative = potentiated, n = 2
Sequence (Q08462 whole entry): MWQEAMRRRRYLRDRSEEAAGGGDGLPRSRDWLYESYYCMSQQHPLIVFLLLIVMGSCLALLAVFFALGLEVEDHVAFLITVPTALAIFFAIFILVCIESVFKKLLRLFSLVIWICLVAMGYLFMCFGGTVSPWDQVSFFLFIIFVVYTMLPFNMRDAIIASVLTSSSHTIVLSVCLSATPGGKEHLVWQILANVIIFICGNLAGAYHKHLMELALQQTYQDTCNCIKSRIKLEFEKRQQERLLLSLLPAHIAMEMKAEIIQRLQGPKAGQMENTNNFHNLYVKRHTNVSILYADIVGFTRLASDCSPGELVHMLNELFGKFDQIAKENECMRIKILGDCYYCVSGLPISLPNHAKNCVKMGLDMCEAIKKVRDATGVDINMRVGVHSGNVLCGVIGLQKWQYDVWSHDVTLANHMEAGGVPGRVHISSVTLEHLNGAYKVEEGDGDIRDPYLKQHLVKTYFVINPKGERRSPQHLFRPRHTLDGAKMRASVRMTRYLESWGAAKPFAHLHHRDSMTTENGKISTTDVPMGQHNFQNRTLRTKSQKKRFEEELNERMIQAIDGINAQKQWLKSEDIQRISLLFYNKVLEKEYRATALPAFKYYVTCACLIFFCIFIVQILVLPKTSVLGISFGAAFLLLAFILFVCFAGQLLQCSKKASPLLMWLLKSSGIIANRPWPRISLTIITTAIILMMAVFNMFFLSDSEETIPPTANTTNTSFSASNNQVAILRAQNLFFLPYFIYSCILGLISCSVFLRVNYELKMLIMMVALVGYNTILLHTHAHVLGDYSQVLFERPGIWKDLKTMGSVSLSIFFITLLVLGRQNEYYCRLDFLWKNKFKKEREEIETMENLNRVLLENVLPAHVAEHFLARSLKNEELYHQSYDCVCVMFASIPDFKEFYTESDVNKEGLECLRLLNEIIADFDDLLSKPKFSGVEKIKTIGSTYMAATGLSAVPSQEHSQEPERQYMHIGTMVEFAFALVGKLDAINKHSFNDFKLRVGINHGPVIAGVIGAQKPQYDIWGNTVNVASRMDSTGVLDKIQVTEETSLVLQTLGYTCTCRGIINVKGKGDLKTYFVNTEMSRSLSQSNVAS
Put down the number, then write its unit next to it.

Solved cases (5 shown):
CSc1ccccc1C(=O)Nc1cc(C)nn1-c1nc2c(c(=O)[nH]1)CCC2 [Compound F2215-0954] | −185%
O=C(Nc1nnc(-c2ccc3c(c2)OCCO3)o1)c1ccc(Br)cc1 [Compound F0608-0011] | −7%
CSc1cccc(C(=O)Nc2nnc(C3CCCCC3)o2)c1 [Compound F2289-0107] | −210%
CCc1cc(=O)[nH]c(-n2nc(C)cc2NC(=O)c2ccccc2F)n1 [Compound F2215-0213] | −70%
CCc1c(C)nc(-n2nc(C)cc2NC(=O)c2ccco2)[nH]c1=O [Compound F2215-0772] | 32%

stdin: // hAC2 % Inhib lookup, key: O=C(Nc1nnc(-c2ccc3c(c2)CCCC3)o1)c1ccccc1 [Compound F0608-0538]
stdout: −95%

stdin: // hAC2 % Inhib lookup, key: CC1CC(C)CN(S(=O)(=O)c2ccc(C(=O)Nc3nnc(-c4cccs4)o3)cc2)C1 (stereo not shown) [Compound F0559-0346]
stdout: −6%

###

biological target: hAC1 (Homo sapiens); construct: expressed in transfected cells; assay: Cyclic AMP accumulation (HTRF) in HEK cells stably expressing AC1, stimulated with A23187; assay type: cell-based; settings: AC8 IC50/AC1 IC50; without AC8 IC50, estimate based on IC50 ≥30 μM
Reported Selectivity AC1 vs AC8 by item:

Solved cases (5 shown):
CSc1cccc(C(=O)Nc2nnc(C3CCCCC3)o2)c1 [Compound F2289-0107] | >4-fold
O=C(Nc1nnc(-c2ccc3c(c2)OCCO3)o1)c1ccc(Br)cc1 [Compound F0608-0011] | 9-fold
CSc1ccccc1C(=O)Nc1cc(C)nn1-c1nc2c(c(=O)[nH]1)CCC2 [Compound F2215-0954] | >5-fold
CCc1c(C)nc(-n2nc(C)cc2NC(=O)c2ccco2)[nH]c1=O [Compound F2215-0772] | >30-fold
O=C(Nc1nnc(-c2ccc3c(c2)CCCC3)o1)c1ccccc1 [Compound F0608-0538] | 10-fold

stdin: // Selectivity AC1 vs AC8 lookup, key: CC1CC(C)CN(S(=O)(=O)c2ccc(C(=O)Nc3nnc(-c4cccs4)o3)cc2)C1 (stereo not drawn) [Compound F0559-0346]
stdout: 2-fold

###

Reported inhibition at 30 µM by item:
target: hAC1 (Homo sapiens); construct: expressed in transfected cells; test: Cyclic AMP accumulation (HTRF) in HEK cells stably expressing AC1, stimulated with A23187; format: cell-based; details: HEK293; Table 2; 30 μM
The answer is to be given in %; state only the numeric part.

Solved cases (3 shown):
CCc1cc(=O)nc(-n2nc(C)cc2NC(=O)c2ccccc2F)[nH]1 | 99
CCc1cc(=O)nc(-n2nc(C)cc2NC(=O)c2ccc(Cl)cc2)[nH]1 | 99
Cc1cc(NC(=O)c2ccccc2F)n(-c2nc(=O)cc(C)[nH]2)n1 | 101

stdin: // inhibition at 30 µM lookup, key: Cc1cc(NC(=O)c2ccco2)n(-c2nc(=O)cc(C)[nH]2)n1
stdout: 92

stdin: // inhibition at 30 µM lookup, key: Cc1cc(NC(=O)c2cccc(F)c2)n(-c2nc(=O)cc(C)[nH]2)n1
stdout: 94

stdin: // inhibition at 30 µM lookup, key: Cc1cc(NC(=O)C2CC2)n(-c2nc(=O)cc(C)[nH]2)n1
stdout: 4

stdin: // inhibition at 30 µM lookup, key: CCc1cc(=O)nc(-n2nc(C)cc2NC(=O)C2CC2)[nH]1
stdout: 79

stdin: // inhibition at 30 µM lookup, key: CCc1cc(=O)nc(-n2nc(C)cc2NC(=O)c2cccc(F)c2)[nH]1
stdout: 98

###

Target or system HEK-AC1 cells; recorded quantity Viability % Veh.
The answer is to be given in % Veh; state only the numeric part.

stdin: // Viability % Veh lookup, key: CSc1cccc(C(=O)Nc2nnc(C3CCCCC3)o2)c1
stdout: 117

stdin: // Viability % Veh lookup, key: CCc1cc(=O)[nH]c(-n2nc(C)cc2NC(=O)c2ccccc2F)n1
stdout: 101

stdin: // Viability % Veh lookup, key: CC1CC(C)CN(S(=O)(=O)c2ccc(C(=O)Nc3nnc(-c4cccs4)o3)cc2)C1 (stereo not shown)
stdout: 118

stdin: // Viability % Veh lookup, key: CSc1ccccc1C(=O)Nc1cc(C)nn1-c1nc2c(c(=O)[nH]1)CCC2
stdout: 106

stdin: // Viability % Veh lookup, key: CCc1c(C)nc(-n2nc(C)cc2NC(=O)c2ccco2)[nH]c1=O
stdout: 93

stdin: // Viability % Veh lookup, key: O=C(Nc1nnc(-c2ccc3c(c2)CCCC3)o1)c1ccccc1
stdout: 118

stdin: // Viability % Veh lookup, key: O=C(Nc1nnc(-c2ccc3c(c2)OCCO3)o1)c1ccc(Br)cc1
stdout: 125

###

target: hAC1 (Homo sapiens, UniProt Q08828); construct: expressed in transfected cells; assay: Cyclic AMP accumulation (HTRF) in HEK cells stably expressing AC1, stimulated with A23187; format: cell-based; conditions: Table 2; read-out: HEK-AC1 IC50
Sequence (Q08828 whole entry): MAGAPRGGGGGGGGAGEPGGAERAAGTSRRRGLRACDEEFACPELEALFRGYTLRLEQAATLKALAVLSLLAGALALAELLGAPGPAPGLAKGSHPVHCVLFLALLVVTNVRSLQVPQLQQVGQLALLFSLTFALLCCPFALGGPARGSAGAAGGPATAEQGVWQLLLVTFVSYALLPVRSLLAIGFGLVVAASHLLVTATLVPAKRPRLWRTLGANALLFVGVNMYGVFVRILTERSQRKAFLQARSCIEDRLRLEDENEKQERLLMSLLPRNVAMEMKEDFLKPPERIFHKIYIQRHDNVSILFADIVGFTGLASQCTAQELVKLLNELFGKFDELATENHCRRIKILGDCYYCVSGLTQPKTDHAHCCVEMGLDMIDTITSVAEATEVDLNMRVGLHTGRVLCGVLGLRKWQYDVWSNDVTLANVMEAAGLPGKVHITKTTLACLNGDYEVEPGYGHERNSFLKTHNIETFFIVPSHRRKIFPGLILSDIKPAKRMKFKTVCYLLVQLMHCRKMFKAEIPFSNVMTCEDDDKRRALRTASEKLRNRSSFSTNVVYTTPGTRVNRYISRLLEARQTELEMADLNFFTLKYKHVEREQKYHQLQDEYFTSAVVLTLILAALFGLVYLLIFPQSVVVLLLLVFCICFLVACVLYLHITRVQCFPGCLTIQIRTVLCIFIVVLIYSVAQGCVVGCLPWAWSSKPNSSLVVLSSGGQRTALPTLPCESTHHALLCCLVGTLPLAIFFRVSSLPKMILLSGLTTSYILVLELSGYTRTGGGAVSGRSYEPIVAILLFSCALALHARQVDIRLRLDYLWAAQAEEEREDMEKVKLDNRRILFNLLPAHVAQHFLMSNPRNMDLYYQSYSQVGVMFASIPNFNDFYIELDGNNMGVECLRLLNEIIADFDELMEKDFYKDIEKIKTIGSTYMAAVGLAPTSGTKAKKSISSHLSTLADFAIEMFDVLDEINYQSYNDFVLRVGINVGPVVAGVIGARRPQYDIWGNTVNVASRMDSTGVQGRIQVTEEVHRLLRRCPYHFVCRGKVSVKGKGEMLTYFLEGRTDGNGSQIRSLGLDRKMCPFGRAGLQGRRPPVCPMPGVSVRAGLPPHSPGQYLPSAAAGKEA
Reported log10(IC50) by item:
# log10 transformed; quantity=IC50; unit=nM

Solved cases (5 shown):
Cc1cc(NC(=O)c2cccc(F)c2)n(-c2nc(=O)cc(C)[nH]2)n1 [AC10057] | 3.57
CCc1cc(=O)nc(-n2nc(C)cc2NC(=O)c2ccc(Cl)cc2)[nH]1 [AC10058] | 3.08
CCc1cc(=O)nc(-n2nc(C)cc2NC(=O)c2cccc(F)c2)[nH]1 [AC10049] | 3.11
CCc1cc(=O)nc(-n2nc(C)cc2NC(=O)c2ccccc2F)[nH]1 [AC10048] | 2.76
Cc1cc(NC(=O)c2ccccc2F)n(-c2nc(=O)cc(C)[nH]2)n1 [AC10042] | 3.18

stdin: // log10(IC50) lookup, key: CCc1cc(=O)nc(-n2nc(C)cc2NC(=O)C2CC2)[nH]1 [AC10050]
stdout: 4.22

stdin: // log10(IC50) lookup, key: Cc1cc(NC(=O)c2ccco2)n(-c2nc(=O)cc(C)[nH]2)n1 [AC10043]
stdout: 4.01
